Give measured IC50 for each item. Keep answers brief.
systemUnderTest: Monoglyceride lipase (Homo sapiens, UniProt Q99685)
Sequence (Q99685 whole entry): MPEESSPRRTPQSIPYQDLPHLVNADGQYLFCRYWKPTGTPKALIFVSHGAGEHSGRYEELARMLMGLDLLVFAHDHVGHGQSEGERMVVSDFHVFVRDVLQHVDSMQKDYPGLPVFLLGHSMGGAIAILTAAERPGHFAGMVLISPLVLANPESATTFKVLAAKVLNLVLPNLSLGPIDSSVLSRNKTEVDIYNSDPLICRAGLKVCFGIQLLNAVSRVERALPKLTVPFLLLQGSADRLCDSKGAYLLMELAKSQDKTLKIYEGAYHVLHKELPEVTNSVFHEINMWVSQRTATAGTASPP
Use µM as the unit, but write only the number.

# input Requested field: IC50. Item: `CC1CCN(C(=S)SSC(=S)N2CCC(C)CC2)CC1`
# output 0.269

# input Requested field: IC50. Item: `CN(C(=S)SSC(=S)N(C)C1CCCCC1)C1CCCCC1`
# output 0.141

# input Requested field: IC50. Item: `C1CCN(SSN2CCCCC2)CC1`
# output 9.55
